Recorded values, source ChEMBL document CHEMBL5442219.

measuredTarget: Alpha-1B adrenergic receptor (Homo sapiens)
Sequence (whole entry): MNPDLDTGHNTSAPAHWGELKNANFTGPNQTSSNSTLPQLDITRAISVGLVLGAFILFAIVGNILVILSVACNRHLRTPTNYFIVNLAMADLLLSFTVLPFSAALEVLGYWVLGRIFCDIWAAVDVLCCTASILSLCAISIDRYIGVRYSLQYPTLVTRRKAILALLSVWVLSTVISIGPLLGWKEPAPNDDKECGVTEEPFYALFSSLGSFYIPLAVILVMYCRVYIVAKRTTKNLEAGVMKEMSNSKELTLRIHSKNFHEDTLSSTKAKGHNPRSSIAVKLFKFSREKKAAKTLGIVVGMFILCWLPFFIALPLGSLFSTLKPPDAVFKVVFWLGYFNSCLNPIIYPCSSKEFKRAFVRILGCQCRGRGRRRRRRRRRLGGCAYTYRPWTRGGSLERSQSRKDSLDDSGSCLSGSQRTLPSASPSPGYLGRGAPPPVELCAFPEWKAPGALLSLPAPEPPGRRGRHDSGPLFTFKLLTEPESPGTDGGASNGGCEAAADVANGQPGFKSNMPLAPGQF
conditionsUsed: Compound concentration 10 µM; call rule not given here
Returns: one label drawn from 1 for active, -1 for inactive

q: Name the outcome recorded for O=c1ccc2ccc(OCCCCN3CCN(c4cccc5sccc45)CC3)cc2[nH]1 in the assay.
a: 1

q: Name the outcome recorded for CN1C[C@H](C(=O)N[C@]2(C)O[C@@]3(O)[C@@H]4CCCN4C(=O)[C@H](Cc4ccccc4)N3C2=O)C[C@@H]2c3cccc4[nH]cc(c34)C[C@H]21 in the assay.
a: 1

q: Returns: the outcome recorded for CCCCCNC(=N)N/N=C/c1c[nH]c2ccc(OC)cc12 in this assay.
a: 1

q: I would be grateful if you could indicate the recorded call for CCc1cc(C(C)=O)c(O)cc1OCCCCCC(C)(C)c1nn[nH]n1 .
a: -1

q: Which outcome did this test record for the compound CN(C)C(=O)C(CCN1CCC(O)(c2ccc(Cl)cc2)CC1)(c1ccccc1)c1ccccc1 ?
a: 1

q: GET /call?item= CC(C)(C)NC[C@H](O)COc1nsnc1N1CCOCC1 returns the recorded outcome of this test.
a: -1

q: Name the outcome recorded for Brc1c(NC2=NCCN2)ccc2nccnc12 in the assay.
a: 1

q: For this compound, state the assay outcome: CC(C)NCC(O)COc1cccc2[nH]ccc12 (stereo unspecified)
a: -1

q: I'd appreciate the recorded outcome for N#Cc1c(N)nc(SCc2csc(-c3ccc(Cl)cc3)n2)c(C#N)c1-c1ccc(OCCO)cc1 from this test.
a: -1

q: Fill in: this test's call for CNC[C@H](O)c1ccc(O)c(O)c1 is ___
a: -1

q: Hi team, can someone confirm the assay call for O=C(O)CC1CCC2(CC1)CCN(c1cc(OC(F)(F)F)ccc1Cl)CC2 ?
a: -1
